# Tested on: NMP53^−/− cells
# METHOD_NOTES: Colony formation assay on NMP53^−/− cells
# Format: cell-based, murine
# RUN_PARAMETERS: Mus musculus, 120 h, colony formation assay, 5 days; read-out: EC (NMP53^−/−)
MEASURED_METRIC: log10 of minimal effective concentration (log10 of the value in µM)

>  <COMPOUND>
COc1cc(-c2cn[nH]c2)ccc1CNc1ccc(F)c(NC(=O)CCc2ccco2)c1 [Compound 127d]

>  <NUMERIC_VALUE>
-0.60

$$$$
>  <COMPOUND>
Cc1ccc(CCC(=O)Nc2cc(NCc3ccc(-c4cnn(C)c4)cc3)ccc2F)o1 [Compound 107h]

>  <NUMERIC_VALUE>
-0.90

$$$$
>  <COMPOUND>
Cn1cc(-c2ccc(CNc3ccc(F)c(NC(=O)CCC4CCCO4)c3)cc2)cn1 (centres unmarked) [Compound 107g]

>  <NUMERIC_VALUE>
-0.90

$$$$
>  <COMPOUND>
Cn1cc(-c2ccc(CNc3ccc(F)c(NC(=O)CCc4ccco4)c3)cc2F)cn1 [Compound 128a]

>  <NUMERIC_VALUE>
-1.49

$$$$
>  <COMPOUND>
COc1cc(-c2cnn(C)c2)ccc1CNc1ccc(F)c(NC(=O)CCc2ccco2)c1 [Compound 128d]

>  <NUMERIC_VALUE>
-1.51

$$$$
>  <COMPOUND>
O=C(Cc1ccccc1)Nc1cc(NCc2cc(-c3cc4cccnc4[nH]3)ccn2)ccc1F [Compound 18c]

>  <NUMERIC_VALUE>
-0.60

$$$$
>  <COMPOUND>
CCn1cc(-c2ccc(CNc3ccc(F)c(NC(=O)CCc4ccco4)c3)cc2)cn1

>  <NUMERIC_VALUE>
-0.90

$$$$
>  <COMPOUND>
Nc1n[nH]cc1-c1ccc(CNc2ccc(F)c(NC(=O)CCc3ccco3)c2)cc1

>  <NUMERIC_VALUE>
-0.60

$$$$
>  <COMPOUND>
Cn1cc(-c2ccc(CNc3ccc(F)c(NC(=O)C=Cc4ccccc4)c3)cc2)cn1 [Compound 107s]

>  <NUMERIC_VALUE>
-0.30

$$$$
>  <COMPOUND>
Cn1cc(-c2ccc(CNc3ccc(F)c(NC(=O)CCc4cccs4)c3)cc2)cn1 [Compound 107o]

>  <NUMERIC_VALUE>
-0.90

$$$$
>  <COMPOUND>
Cn1cc(-c2ccc(CNc3ccc(F)c(NC(=O)CCc4ccco4)c3)cc2)c(N)n1

>  <NUMERIC_VALUE>
-0.60

$$$$
>  <COMPOUND>
Cn1cc(-c2ccc(CNc3ccc(F)c(NC(=O)Cc4ccco4)c3)cc2)cn1 [Compound 107m]

>  <NUMERIC_VALUE>
-0.90

$$$$
>  <COMPOUND>
CC(=O)n1cc(-c2ccc(CNc3ccc(F)c(NC(=O)CCc4ccco4)c3)cc2)cn1

>  <NUMERIC_VALUE>
-0.90

$$$$
>  <COMPOUND>
Cn1cc(-c2ccc(CNc3ccc(F)c(NC(=O)/C=C/c4ccco4)c3)cc2)cn1 [Compound 107r]

>  <NUMERIC_VALUE>
-1.21

$$$$

====

# Test system: NMP53^−/− cells
# METHOD_NOTES: Colony formation assay on NMP53^−/− cells
# Type: cell-based, murine
# RUN_PARAMETERS: Mus musculus, 120 h, colony formation assay, 5 days; read-out: EC (NMP53^−/−)
Below is a list of entries, each paired with its recorded minimal effective concentration value.

>  <COMPOUND>
Cc1ccc(CCC(=O)Nc2cc(NCc3ccc(-c4cn[nH]c4)cc3)ccc2F)o1 [Compound 106h]

>  <RESULT_OPERATOR>
=

>  <minimal effective concentration, µM>
0.25

$$$$
>  <COMPOUND>
Cn1cc(-c2ccc(CNc3ccc(F)c(NC(=O)CCc4ccco4)c3)c(F)c2)cn1 [Compound 128c]

>  <RESULT_OPERATOR>
=

>  <minimal effective concentration, µM>
0.125

$$$$
>  <COMPOUND>
O=C(CCc1ccco1)Nc1cc(NCc2ccc(-c3cn[nH]c3)cc2F)ccc1F [Compound 127c]

>  <RESULT_OPERATOR>
=

>  <minimal effective concentration, µM>
0.125

$$$$
>  <COMPOUND>
NCCn1cc(-c2ccc(CNc3ccc(F)c(NC(=O)CCc4ccco4)c3)cc2)cn1

>  <RESULT_OPERATOR>
=

>  <minimal effective concentration, µM>
0.5

$$$$
>  <COMPOUND>
CCCn1cc(-c2ccc(CNc3ccc(F)c(NC(=O)CCc4ccco4)c3)cc2)cn1

>  <RESULT_OPERATOR>
=

>  <minimal effective concentration, µM>
4

$$$$
>  <COMPOUND>
CN(C(=O)CCc1ccco1)c1cc(NCc2ccc(-c3cnn(C)c3)cc2)ccc1F

>  <RESULT_OPERATOR>
>

>  <minimal effective concentration, µM>
4

$$$$
>  <COMPOUND>
Cc1noc(C)c1-c1ccc(CNc2ccc(F)c(NC(=O)CCc3ccco3)c2)cc1

>  <RESULT_OPERATOR>
=

>  <minimal effective concentration, µM>
0.5

$$$$
>  <COMPOUND>
Cn1ccc(Nc2ccc(CNc3ccc(F)c(NC(=O)CCc4ccco4)c3)cc2)n1

>  <RESULT_OPERATOR>
=

>  <minimal effective concentration, µM>
0.25

$$$$
>  <COMPOUND>
O=C(CCc1ccco1)Nc1cc(NCc2ccc(-c3cn[nH]c3)nc2)ccc1F [Compound 127e]

>  <RESULT_OPERATOR>
=

>  <minimal effective concentration, µM>
0.5

$$$$
>  <COMPOUND>
COc1cc(CNc2ccc(F)c(NC(=O)CCc3ccco3)c2)ccc1-c1cn[nH]c1 [Compound 127b]

>  <RESULT_OPERATOR>
=

>  <minimal effective concentration, µM>
0.25

$$$$
>  <COMPOUND>
O=C(CC1CC1)Nc1cc(NCc2cc(-c3cc4cccnc4[nH]3)ccn2)ccc1F

>  <RESULT_OPERATOR>
=

>  <minimal effective concentration, µM>
0.5

$$$$
